Consider the following compounds and their measured INHIBITION readings.
# Test system: Plasmodium berghei
# ASSAY_EXPLANATION: Screen against P. berghei liver stage (PbLuc), transformed with Luciferase, at 2uM
# Format: functional, HepG2
# STUDY_CONDITIONS: tested at 2 uM
In all, about 68,000 compounds went through this assay and about 2,700 (4%) showed an effect of 50% or more. The sample as a whole holds a higher share of strong results than the screen did.
Give the quantity in %, number only.

query: // lookup INHIBITION | system=Plasmodium berghei | key= O=C(Cc1c[nH]c2ccccc12)N1CCC(Nc2cccnn2)CC1
result: -32.2

query: What reported INHIBITION corresponds to CCN1CC(CN(C)c2cc(C)nc(N)n2)Oc2ccccc21 (stereo not drawn) on Plasmodium berghei?
result: -10.39

query: // map CC(C)CN1CCC2(COCc3cnc(-c4ccccc4)nc32)C1 (stereo not drawn) to recorded INHIBITION (system: Plasmodium berghei)
result: 5.22

query: # get_value(readout= INHIBITION, system= Plasmodium berghei) for CCC(CC)c1cc(CNC(=O)N2CCCC(C(=O)NC)C2)on1 (stereo not drawn)
result: 59.8

query: Missing value: INHIBITION, Plasmodium berghei, entry c1cncc(-c2ccnn2CN2CCOCC2)c1 . Fill in?
result: -31.15

Further cases:
query: Please state recorded INHIBITION (tested on Plasmodium berghei) of CN(Cc1nc(C2CC2)no1)C(=O)c1cccc(CC2CCNCC2)c1
result: -11.41

query: Please provide the recorded INHIBITION for CC(C)(C)CCN1CCN(Cn2nccc2-c2cccnc2)CC1 , tested on Plasmodium berghei.
result: -15.83

query: GET /values?readout=INHIBITION&system=Plasmodium berghei&item= Cc1ccc(CC(=O)N2CCC(Nc3cccnn3)CC2)s1
result: 50.75
